List of Log Ki values.
Target: Adrenergic receptor alpha-1 (Rattus norvegicus, UniProt P15823+P23944+P43140)
Sequence (P15823 whole entry): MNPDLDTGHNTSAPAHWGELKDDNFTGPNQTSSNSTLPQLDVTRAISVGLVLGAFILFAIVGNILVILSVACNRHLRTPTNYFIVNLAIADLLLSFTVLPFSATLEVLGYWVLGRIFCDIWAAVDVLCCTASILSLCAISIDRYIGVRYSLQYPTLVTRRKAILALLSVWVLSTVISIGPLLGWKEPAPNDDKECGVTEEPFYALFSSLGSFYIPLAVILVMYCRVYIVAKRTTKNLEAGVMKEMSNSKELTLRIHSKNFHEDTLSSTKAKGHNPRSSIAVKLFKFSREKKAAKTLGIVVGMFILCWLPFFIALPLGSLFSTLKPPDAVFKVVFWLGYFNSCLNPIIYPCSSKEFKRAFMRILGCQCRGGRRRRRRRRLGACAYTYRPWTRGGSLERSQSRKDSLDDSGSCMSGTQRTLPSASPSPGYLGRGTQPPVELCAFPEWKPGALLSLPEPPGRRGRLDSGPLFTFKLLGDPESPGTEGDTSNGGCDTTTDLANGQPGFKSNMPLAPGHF
Sequence (P23944 whole entry): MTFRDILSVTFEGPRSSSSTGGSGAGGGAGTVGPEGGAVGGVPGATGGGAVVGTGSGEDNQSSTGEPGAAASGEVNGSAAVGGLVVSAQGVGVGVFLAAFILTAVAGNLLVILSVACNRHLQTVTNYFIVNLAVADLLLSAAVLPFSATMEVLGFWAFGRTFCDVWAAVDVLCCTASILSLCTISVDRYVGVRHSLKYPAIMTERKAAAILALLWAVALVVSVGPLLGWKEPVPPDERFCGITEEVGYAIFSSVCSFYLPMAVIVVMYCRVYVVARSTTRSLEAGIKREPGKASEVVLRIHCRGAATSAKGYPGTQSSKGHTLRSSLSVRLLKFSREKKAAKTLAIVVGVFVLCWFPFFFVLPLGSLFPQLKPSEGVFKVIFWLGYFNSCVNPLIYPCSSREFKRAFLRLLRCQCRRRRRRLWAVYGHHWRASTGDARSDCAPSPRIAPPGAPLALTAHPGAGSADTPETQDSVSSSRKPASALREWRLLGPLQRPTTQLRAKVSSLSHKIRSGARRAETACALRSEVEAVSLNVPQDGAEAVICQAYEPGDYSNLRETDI
Sequence (P43140 whole entry): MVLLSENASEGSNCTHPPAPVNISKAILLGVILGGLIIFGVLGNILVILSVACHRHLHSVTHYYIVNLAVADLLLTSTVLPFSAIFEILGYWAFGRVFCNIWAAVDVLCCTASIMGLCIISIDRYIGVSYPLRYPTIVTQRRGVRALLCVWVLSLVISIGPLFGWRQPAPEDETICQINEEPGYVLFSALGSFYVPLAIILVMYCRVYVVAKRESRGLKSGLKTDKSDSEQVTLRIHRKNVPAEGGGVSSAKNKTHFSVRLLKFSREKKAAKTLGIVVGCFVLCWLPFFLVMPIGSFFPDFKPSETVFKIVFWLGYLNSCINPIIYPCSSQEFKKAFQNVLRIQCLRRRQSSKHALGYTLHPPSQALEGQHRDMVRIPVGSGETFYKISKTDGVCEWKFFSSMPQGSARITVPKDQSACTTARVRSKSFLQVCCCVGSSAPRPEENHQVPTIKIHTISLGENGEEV
Assay: Binding affinity at Alpha-1 adrenergic receptor by inhibition of [3H]-prazosin binding to rat cortex
endpoint: Log Ki

>>> print(df.to_string())
                                   molecule  endpoint  reported_measurement
0  O[C@@H]1c2cc3c(cc2C[C@H]1N1CCC(c2cccc4c2OCCO4)CC1)OCO3 (relative stereo)    Log Ki                 -7.53
1  O=[N+]([O-])c1ccc2c(c1)[C@@H](O)[C@H](N1CCN(c3cccc4c3OCCO4)CC1)C2 (relative stereo)    Log Ki                 -6.03
2  O[C@@H]1c2ccc(F)cc2C[C@H]1N1CC=C(c2cccc3c2OCCO3)CC1 (relative stereo)    Log Ki                 -6.96
3  COc1ccc2c(c1)[C@@H](O)[C@H](N1CCN(c3cccc4c3OCCO4)CC1)C2 (relative stereo)    Log Ki                 -6.57
4  O[C@@H]1c2ccc(F)cc2C[C@H]1N1CCC(c2cc(F)cc3c2OCCC3)CC1 (relative stereo)    Log Ki                 -7.26
5  c1ccc2c(c1)CC(N1CCN(c3cccc4c3OCCO4)CC1)C2    Log Ki                  -6.9
6  COc1ccc2c(c1)[C@@H](O)[C@H](N1CCC(c3cccc4c3OCCO4)CC1)C2 (relative stereo)    Log Ki                 -7.22
7  Cc1ccc2c(c1)[C@@H](O)[C@H](N1CCC(c3cccc4c3OCCO4)CC1)C2 (relative stereo)    Log Ki                 -7.44
